- experimental_context: n = 3, mean ± SEM
Each entry below carries its reported Pe(exp) PAMPA–BBB.
endpoint_name: Pe(exp) PAMPA–BBB

N#Cc1cccc(-c2nn(CN3CCN(Cc4ccccc4)CC3)c(=S)o2)c1 [SD-4] :: 6.127 10^–6 cm/s
FC(F)(F)c1ccc(-c2nn(CN3CCN(Cc4ccccc4)CC3)c(=S)o2)cc1 [SD-8] :: 5.019 10^–6 cm/s
O=[N+]([O-])c1cc(-c2nn(CN3CCN(Cc4ccccc4)CC3)c(=S)o2)ccc1Cl [SD-14] :: 4.848 10^–6 cm/s
S=c1oc(-c2ccccc2)nn1CN1CCN(Cc2ccccc2)CC1 [SD-6] :: 5.643 10^–6 cm/s
